Assayed Target: AMP-activated protein kinase, AMPK (Homo sapiens) (UniProt P54646+O43741+P54619+Q9UGJ0+Q9Y478+Q13131+Q9UGI9)
Assay: AMP-dependent Kinase enzyme assay. An in vitro enzyme assay that detects ADP turnover that is directly proportional to AMPK activity. This uses naive AMPK that is activated during the assay with MK-8722
Type: functional
Design: scale not given: direction of the effect not stated beside the values
Applied Conditions: 30 µM
Result Type: Percent Effect (%)
Report the value in % with no unit label.

Compound	Units	Percent Effect
O=C(c1ccoc1)N1CCCn2cnc(COCC3CC3)c2C1	%	6.15
CN(C)c1ccc(CC(=O)N[C@@H]2CCNC[C@H]2O)cc1	%	-14.5
Cc1nc2c(c(C)c1CC(=O)Nc1cccc(C#N)c1)c(=O)[nH]n2C	%	0.36
Cc1cccc(C(=O)NC(CN2CCCC2=O)c2ccccc2)n1 (stereo unspecified)	%	-3.02
COc1c(CNC(c2ccc(F)cc2)c2nccn2C)c(C)nn1C (stereo unspecified)	%	-3.24

Input line: Answer with reported Percent Effect of COc1c(C2CCCN2C(=O)c2ccnc(N(C)C)c2)c(C)nn1C (stereo unspecified)
Output line: 4.01

Input line: Answer with reported Percent Effect of CN(C)C(=O)NC1COC2(CCN(C(=O)Nc3ccccc3)CC2)C1 (stereo unspecified)
Output line: 1.41

Input line: Answer with reported Percent Effect of `O=C(c1ccc[nH]1)N1C[C@H](OCc2cccnc2)[C@H]2COC[C@H]21`
Output line: 2.4

Input line: Answer with reported Percent Effect of `O=C1COc2ccc(C(=O)NS(=O)(=O)c3ccc(F)cc3F)cc2N1`
Output line: 6.3

Input line: Answer with reported Percent Effect of N#CCCCS(=O)(=O)N1CCCC1CC(=O)c1cccs1 (stereo unspecified)
Output line: -3.83

Input line: Answer with reported Percent Effect of `Cc1n[nH]c(C(=O)NCc2ccnc(OCC(F)(F)F)c2)c1Br`
Output line: -2.47

----------
Assayed Target: Proteasome subunit beta (Trypanosoma cruzi)
Assay: Trypanosoma cruzi proteasome chymotrypsin-like activity (TcProtChymo) assay. Note: in the data most compounds retested in dose-response had high values.
Format: functional
Design: scale not given: direction of the effect not stated beside the values
Applied Conditions: 9.37 µM
Result Type: Percent Effect (%)
Report the value in % with no unit label.

// known answers, use as guide
Compound	Percent Effect / %
O=C(NCCn1ccnc1)N1CCN(Cc2cccs2)CC1	21.9
Cc1ncsc1C(=O)N(Cc1cccnc1)C1CC1	-1.45
O=C(NCCO)C1(Cc2cc(-c3ccc(F)cc3F)no2)CCOCC1	15.8
CC(=O)NCC(=O)N1CCN(CC2CC2)c2ncccc2C1	11
CC(C)c1noc(CCCC(=O)NC2CCS(=O)(=O)C2)n1 (centres undefined)	12.6

Input line: Answer with reported Percent Effect of `CC(=O)N1CCCN(C(=O)CCc2c(C)noc2C)CC1`
Output line: 9.52

Input line: Answer with reported Percent Effect of CS(=O)(=O)N1CCN(CC(O)COc2ccc(F)cc2)CC1 (centres undefined)
Output line: 11.4

Input line: Answer with reported Percent Effect of CCc1nc(CN2CCCC(NCc3nc4cccnc4[nH]3)C2)no1 (centres undefined)
Output line: 5.98

Input line: Answer with reported Percent Effect of `Cc1cc(C)n(Cc2cccc(C(=O)NCCN3CCOCC3)c2)n1`
Output line: 24.3

Input line: Answer with reported Percent Effect of O=C(Nc1nccs1)NC1CCN(Cc2ccccc2)C1 (centres undefined)
Output line: 9.13

Input line: Answer with reported Percent Effect of `CN(C)CCO[C@@H]1CC[C@H]2[C@H]1OCCN2C(=O)CCc1ccccc1`
Output line: 0.171

Input line: Answer with reported Percent Effect of CNS(=O)(=O)c1cc(C(=O)NC2CCOc3ccccc32)cc(C)c1C (centres undefined)
Output line: 8.53

Input line: Answer with reported Percent Effect of `Cc1ccsc1C(=O)N1Cc2ccccc2C2(CCN(C)CC2)C1`
Output line: 5.56

Input line: Answer with reported Percent Effect of CC(C)NC(=O)N1CCN(Cc2ccccn2)CC2(CC(=O)N(C)C2)C1 (centres undefined)
Output line: 2.49
